Taken from patent US20100144779A1.

Test system: IMR90-EEA
assay-summary: MTT growth inhibition assay
Type: cell-based, human
condition-summary: normal cells, 72 hr, read-out: Growth inhibitory activity (IC50)
Entries and their IC50 values follow.
Numbers only; they are read as µM.

INSERT INTO results (chemical_string, unit_descriptor, experimental_value) VALUES
  ('O=C1C(NCc2ccccc2)=CC2=NCCc3c[nH]c1c32', 'µM', 2.77);

Okay, now this molecule:
Name the recorded IC50 for O=C1C(NCCc2ccccc2)=CC2=NCCc3c[nH]c1c32 .
3.77

###

System: MDA-MB-468
assay-summary: XTT cytotoxicity assay
Assay type: cell-based, human
condition-summary: average ± standard deviation of 2-4 independent assays, read-out: Inhibition of Cancer Cell Proliferation (IC50) MDA-MB-468
Entries and their pIC50 values follow.
Kindly note that pIC50 refers to -log10 of the concentration in mol/L and answer with the value alone.

Worked examples follow.
INSERT INTO assay_data (compound, experimental_value) VALUES
  ('O=C1C(NCCc2c[nH]c3ccccc23)=CC2=NCCc3c[nH]c1c32 [Compound 4g]', 6.40),
  ('COc1cc(NS(C)(=O)=O)ccc1Nc1c2ccccc2nc2ccccc12 [m-AMSA, reference compound]', 5.07),
  ('O=C1C(NCc2ccccc2)=CC2=NCCc3c[nH]c1c32 [Compound 4c]', 6.52);

Tell me reported pIC50 for Cc1ccc(S(=O)(=O)n2cc3c4c2C(=O)C(NCCc2cc(Br)c(O)c(Br)c2)=CC4=NCC3)cc1 [Compound 7f] , tested with MDA-MB-468.
5.82

###

Entries and their IC50 values follow.
System: S2013
assay-summary: MTT growth inhibition assay
Format: cell-based, human
condition-summary: Homo sapiens, S2013, cancer cell, 72 hr, read-out: Growth inhibitory activity (IC50)
Numbers only; they are read as µM.

INSERT INTO assay_data (molecule, study_system, unit_descriptor, experimental_value) VALUES
  ('O=C(O)C(F)(F)F.O=C1C(NCc2ccc(F)cc2)=CC2=NCCc3c[nH]c1c32 [Compound 28]', 'S2013', 'µM', 4.45);

Name the recorded IC50 for COc1ccc(CCNC2=CC3=NCCc4c[nH]c(c43)C2=O)cc1OC.O=C(O)C(F)(F)F [Compound 20] .
29.6

Name the recorded IC50 for O=C(O)C(F)(F)F.O=C1C(NCCc2ccc3c(c2)OCO3)=CC2=NCCc3c[nH]c1c32 [Compound 6] .
11.2

###

System: MCF-7
assay-summary: XTT cytotoxicity assay
Format: cell-based, human
condition-summary: Homo sapiens, MCF7, XTT; average ± standard deviation of 2-4 independent assays; read-out: Inhibition of Cancer Cell Proliferation (IC50) MCF-7
readout-kind: pIC50
Kindly note that pIC50 refers to -log10 of the concentration in mol/L and answer with the value alone.

Name the recorded pIC50 for COc1cc([C@@H]2c3cc4c(cc3[C@@H](O[C@@H]3O[C@@H]5CO[C@@H](C)O[C@H]5[C@H](O)[C@H]3O)[C@H]3COC(=O)[C@H]23)OCO4)cc(OC)c1O [Etoposide, reference compound] .
4.45

###

Tested on: LNCaP
assay-summary: MTT growth inhibition assay
Format: cell-based, human
condition-summary: cancer cell, 72 hr, read-out: Growth inhibitory activity (IC50)
Entries and their pIC50 values follow.
Kindly note that pIC50 refers to -log10 of the concentration in mol/L and answer with the value alone.

Name the recorded pIC50 for O=C1C(NCCc2ccccc2)=CC2=NCCc3c[nH]c1c32 .
6.79

Name the recorded pIC50 for O=C1C(NCc2ccccc2)=CC2=NCCc3c[nH]c1c32 .
5.56
